System: Escherichia coli TOP10;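 further: peptides expressed intracellularly from a pBAD plasmid library in pooled LB shake-flask culture, induced with 0.3% L-arabinose, DNA abundance read by NGS, three biological replicates, DESeq2 with apeglm shrinkage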
experiment notes: shrunken log2 fold change of peptide-encoding DNA abundance (4.5 h post-induction vs induction); higher = less antimicrobial activity (less host growth inhibition)
condition summary: time post-induction: 4.5 h; library: site-saturation at positions 5, 18, 19, 20
Please enter yes where shrunken log2 fold change is greater than or equal to -0.07, and no where it is lower.

ordered residues: RRIRERPPRLPRPRPRPGLMPRP
answer label: yes

ordered residues: RRIRARPPRLPRPRPRPCKTPRP
answer label: yes

ordered residues: RRIRIRPPRLPRPRPRPLKWPRP
answer label: no

ordered residues: RRIRRRPPRLPRPRPRPSWYPRP
answer label: yes

ordered residues: RRIRPRPPRLPRPRPRPLETPRP
answer label: yes

ordered residues: RRIRGRPPRLPRPRPRPLMDPRP
answer label: yes

ordered residues: RRIRTRPPRLPRPRPRPASRPRP
answer label: yes

ordered residues: RRIRVRPPRLPRPRPRPGLFPRP
answer label: yes

ordered residues: RRIRPRPPRLPRPRPRPFTAPRP
answer label: no

ordered residues: RRIRYRPPRLPRPRPRPTRHPRP
answer label: yes

ordered residues: RRIRHRPPRLPRPRPRPPDHPRP
answer label: yes

ordered residues: RRIRLRPPRLPRPRPRPATGPRP
answer label: yes

ordered residues: RRIRIRPPRLPRPRPRPPTPPRP
answer label: yes

ordered residues: RRIRCRPPRLPRPRPRPVDQPRP
answer label: no

ordered residues: RRIRCRPPRLPRPRPRPVKAPRP
answer label: yes

ordered residues: RRIRKRPPRLPRPRPRPVYKPRP
answer label: yes

ordered residues: RRIRMRPPRLPRPRPRPQIWPRP
answer label: yes

ordered residues: RRIRGRPPRLPRPRPRPCFCPRP
answer label: yes

ordered residues: RRIRFRPPRLPRPRPRPMVGPRP
answer label: no

ordered residues: RRIRVRPPRLPRPRPRPYFKPRP
answer label: no

ordered residues: RRIRCRPPRLPRPRPRPRWVPRP
answer label: yes

ordered residues: RRIRMRPPRLPRPRPRPFIHPRP
answer label: no

ordered residues: RRIRIRPPRLPRPRPRPAFNPRP
answer label: no

ordered residues: RRIRARPPRLPRPRPRPHKPPRP
answer label: yes

ordered residues: RRIRIRPPRLPRPRPRPELTPRP
answer label: yes

ordered residues: RRIRSRPPRLPRPRPRPNFQPRP
answer label: no

ordered residues: RRIRGRPPRLPRPRPRPLNHPRP
answer label: yes

ordered residues: RRIRQRPPRLPRPRPRPPQAPRP
answer label: yes

ordered residues: RRIRPRPPRLPRPRPRPRFFPRP
answer label: yes

ordered residues: RRIRARPPRLPRPRPRPNQSPRP
answer label: yes

ordered residues: RRIRLRPPRLPRPRPRPFMCPRP
answer label: no

ordered residues: RRIRARPPRLPRPRPRPFAKPRP
answer label: yes

ordered residues: RRIRRRPPRLPRPRPRPPEKPRP
answer label: yes

ordered residues: RRIRYRPPRLPRPRPRPILNPRP
answer label: no

ordered residues: RRIRERPPRLPRPRPRPEEKPRP
answer label: yes

ordered residues: RRIRIRPPRLPRPRPRPHFTPRP
answer label: no

ordered residues: RRIRVRPPRLPRPRPRPTLPPRP
answer label: yes

ordered residues: RRIRMRPPRLPRPRPRPFDDPRP
answer label: yes

ordered residues: RRIRRRPPRLPRPRPRPWFQPRP
answer label: yes

ordered residues: RRIRSRPPRLPRPRPRPEIMPRP
answer label: yes

ordered residues: RRIRHRPPRLPRPRPRPYTWPRP
answer label: no

ordered residues: RRIRHRPPRLPRPRPRPPDAPRP
answer label: yes

ordered residues: RRIRDRPPRLPRPRPRPFSPPRP
answer label: no

ordered residues: RRIRSRPPRLPRPRPRPLYEPRP
answer label: no

ordered residues: RRIRDRPPRLPRPRPRPDPQPRP
answer label: yes

ordered residues: RRIRARPPRLPRPRPRPSCTPRP
answer label: yes

ordered residues: RRIRMRPPRLPRPRPRPLNNPRP
answer label: yes

ordered residues: RRIRDRPPRLPRPRPRPRDMPRP
answer label: no

ordered residues: RRIRERPPRLPRPRPRPFLFPRP
answer label: no

ordered residues: RRIRKRPPRLPRPRPRPIMVPRP
answer label: yes

ordered residues: RRIRIRPPRLPRPRPRPSGSPRP
answer label: no

ordered residues: RRIRRRPPRLPRPRPRPDIDPRP
answer label: yes

ordered residues: RRIRARPPRLPRPRPRPMEWPRP
answer label: yes

ordered residues: RRIRMRPPRLPRPRPRPSLMPRP
answer label: yes

ordered residues: RRIRHRPPRLPRPRPRPWDEPRP
answer label: no

ordered residues: RRIRGRPPRLPRPRPRPHQMPRP
answer label: yes

ordered residues: RRIRGRPPRLPRPRPRPVLNPRP
answer label: yes

ordered residues: RRIRVRPPRLPRPRPRPKRPPRP
answer label: yes

ordered residues: RRIRDRPPRLPRPRPRPVMFPRP
answer label: yes

ordered residues: RRIRTRPPRLPRPRPRPIDVPRP
answer label: yes

ordered residues: RRIRPRPPRLPRPRPRPQHKPRP
answer label: no

ordered residues: RRIRCRPPRLPRPRPRPVGAPRP
answer label: yes
